molecular target: MCL-1 (Homo sapiens), Q07820; test: ITC; conditions: modification not given
Sequence (Q07820 whole entry): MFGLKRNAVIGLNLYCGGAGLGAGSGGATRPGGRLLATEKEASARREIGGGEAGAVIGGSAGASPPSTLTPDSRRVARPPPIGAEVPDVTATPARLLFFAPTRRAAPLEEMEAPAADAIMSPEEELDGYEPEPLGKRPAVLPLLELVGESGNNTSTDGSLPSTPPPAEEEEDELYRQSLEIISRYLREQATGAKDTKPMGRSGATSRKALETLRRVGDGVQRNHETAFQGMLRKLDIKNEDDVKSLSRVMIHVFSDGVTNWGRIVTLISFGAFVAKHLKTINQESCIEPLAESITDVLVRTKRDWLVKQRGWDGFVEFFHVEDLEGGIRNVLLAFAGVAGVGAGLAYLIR
Observed Property: Kd (nM)

>>> df
                                     binder  observed_property  value_reported
0  CAQWRRIGDKVNLRQKLLN [NOXA75–93 L78W 75-93, Q9JM54]                 Kd            2400
1  CAQFRRIGDKVNLRQKLLN [NOXA75–93 L78F 75-93, Q9JM54]                 Kd            1700
2  CAQLRRIGDKFNLRQKLLN [NOXA75–93 V85F 75-93, Q9JM54]                 Kd             800

Each recorded value in this set is attributed to paper PMC8495968.
